Hey, just so you know, these numbers are from patent US11202776B2.

method-notes: Phase I single-ascending dose (SAD) pharmacokinetics incl. food effect, plasma concentration of the Compound
Type: in vivo, human
measurement-conditions: human, plasma, po, 300 mg, single PO dose 300 mg, fasted, healthy subjects; read-out: T1/2 (converted)
Where a name gives a salt, the structure may show the parent alone.
metric: half-life (min)
Please state the figure in min; there is no need to write the unit.

Consider the compound shown here: O=C(O)c1cccc(CN2CN(C3CCCCC3)C3(CCN(CCCC(=O)c4ccccc4)CC3)C2=O)c1 [the Maleate Salt] What is its recorded half-life?
306

###

method-notes: Phase I single-ascending dose (SAD) pharmacokinetics incl. food effect, plasma concentration of the Compound
Assay type: in vivo, human
measurement-conditions: human, plasma, po, 5 mg, single PO dose 5 mg, fasted, healthy subjects
Structures can show the parent of a compound that is named as a salt.
metric: AUC(0-inf) (ng·h/mL)
Reply with just the number (in ng·h/mL).

Would you mind telling me what AUC(0-inf) value was observed for O=C(O)c1cccc(CN2CN(C3CCCCC3)C3(CCN(CCCC(=O)c4ccccc4)CC3)C2=O)c1 [the Maleate Salt] ?
4.5

###

method-notes: Phase I single-ascending dose (SAD) pharmacokinetics incl. food effect, plasma concentration of the Compound
Type: in vivo, human
measurement-conditions: human, plasma, po, 200 mg, single PO dose 200 mg, fasted, healthy subjects; read-out: T1/2 (converted)
Where a name gives a salt, the structure may show the parent alone.
metric: half-life (h)
Note: unit h is implicit; provide only the numeric part.

Give the measured half-life of O=C(O)c1cccc(CN2CN(C3CCCCC3)C3(CCN(CCCC(=O)c4ccccc4)CC3)C2=O)c1 [the Maleate Salt] .
5.4

###

method-notes: Phase I single-ascending dose (SAD) pharmacokinetics incl. food effect, plasma concentration of the Compound
Type: in vivo, human
measurement-conditions: human, plasma, po, 10 mg, single PO dose 10 mg, fasted, healthy subjects; read-out: Tmax
Counter-ions that a name gives are not always drawn.
metric: Tmax (h)
Respond numerically; units are h and should not be typed.

What value of Tmax has been recorded for this entry: O=C(O)c1cccc(CN2CN(C3CCCCC3)C3(CCN(CCCC(=O)c4ccccc4)CC3)C2=O)c1 [the Maleate Salt]
1.21

###

method-notes: Phase I single-ascending dose (SAD) pharmacokinetics incl. food effect, plasma concentration of the Compound
Format: in vivo, human
measurement-conditions: human, plasma, po, 25 mg, single PO dose 25 mg, fed (high-fat breakfast), healthy subjects
Counter-ions that a name gives are not always drawn.
metric: Cmax (ng/mL)
Form entry: value (ng/mL) — number only.

Given the entry O=C(O)c1cccc(CN2CN(C3CCCCC3)C3(CCN(CCCC(=O)c4ccccc4)CC3)C2=O)c1 [the Maleate Salt] , report its measured Cmax.
6.7

###

method-notes: Phase I multiple-ascending dose (MAD) pharmacokinetics, BID Days 1-4 and single morning dose Day 5
Assay type: in vivo, human
measurement-conditions: human, plasma, po, 100 mg, 100 mg BID PO, fasting, Day 1; read-out: AUC12
Where a name gives a salt, the structure may show the parent alone.
metric: AUC (ng·h/mL)
Entry rule: numbers only, all in ng·h/mL.

// query AUC value for entry O=C(O)c1cccc(CN2CN(C3CCCCC3)C3(CCN(CCCC(=O)c4ccccc4)CC3)C2=O)c1 [the Maleate Salt]
152

###

method-notes: Phase I single-ascending dose (SAD) pharmacokinetics incl. food effect, plasma concentration of the Compound
Assay type: in vivo, human
measurement-conditions: human, plasma, po, 10 mg, single PO dose 10 mg, fasted, healthy subjects
Description: A phase I randomized, double-blind, placebo-controlled, adaptive-design, single-ascending dose (SAD) and multiple-ascending dose (MAD) study was conducted in healthy human subjects to evaluate the safety, tolerability, pharmacokinetics (PK), pharmacodynamics (PD), food effect, and optimal oral dose of 3-((1-cyclohexyl-4-oxo-8-(4-oxo-4-phenylbutyl)-1,3,8-triazaspiro[4.5]decan-3-yl)methyl)benzoic acid maleate (hereinafter, “the Maleate Salt”). […]
Where a name gives a salt, the structure may show the parent alone.
metric: Cmax (ng/mL)
The reply should be a number in ng/mL, with the unit left off.

Recorded Cmax of O=C(O)c1cccc(CN2CN(C3CCCCC3)C3(CCN(CCCC(=O)c4ccccc4)CC3)C2=O)c1 [the Maleate Salt] , please.
6.2

###

method-notes: Phase I multiple-ascending dose (MAD) pharmacokinetics, BID Days 1-4 and single morning dose Day 5
Type: in vivo, human
measurement-conditions: human, plasma, po, 50 mg, 50 mg BID PO, fasting, Day 5 (samples collected to 24 h)
Counter-ions that a name gives are not always drawn.
metric: half-life (h)
// note: answer is a bare numeric in h

Returns the measured half-life for the input molecule. Input: O=C(O)c1cccc(CN2CN(C3CCCCC3)C3(CCN(CCCC(=O)c4ccccc4)CC3)C2=O)c1 [the Maleate Salt]
11
